Hey, just so you know, these numbers are from patent US20180258140A1.

target: FGFR2 Kinase (Homo sapiens, UniProt P21802); assay: FGFR2 kinase inhibition; format: biochemical; settings: percent inhibition of control enzyme activity; test concentration not given
Sequence (P21802 22-821): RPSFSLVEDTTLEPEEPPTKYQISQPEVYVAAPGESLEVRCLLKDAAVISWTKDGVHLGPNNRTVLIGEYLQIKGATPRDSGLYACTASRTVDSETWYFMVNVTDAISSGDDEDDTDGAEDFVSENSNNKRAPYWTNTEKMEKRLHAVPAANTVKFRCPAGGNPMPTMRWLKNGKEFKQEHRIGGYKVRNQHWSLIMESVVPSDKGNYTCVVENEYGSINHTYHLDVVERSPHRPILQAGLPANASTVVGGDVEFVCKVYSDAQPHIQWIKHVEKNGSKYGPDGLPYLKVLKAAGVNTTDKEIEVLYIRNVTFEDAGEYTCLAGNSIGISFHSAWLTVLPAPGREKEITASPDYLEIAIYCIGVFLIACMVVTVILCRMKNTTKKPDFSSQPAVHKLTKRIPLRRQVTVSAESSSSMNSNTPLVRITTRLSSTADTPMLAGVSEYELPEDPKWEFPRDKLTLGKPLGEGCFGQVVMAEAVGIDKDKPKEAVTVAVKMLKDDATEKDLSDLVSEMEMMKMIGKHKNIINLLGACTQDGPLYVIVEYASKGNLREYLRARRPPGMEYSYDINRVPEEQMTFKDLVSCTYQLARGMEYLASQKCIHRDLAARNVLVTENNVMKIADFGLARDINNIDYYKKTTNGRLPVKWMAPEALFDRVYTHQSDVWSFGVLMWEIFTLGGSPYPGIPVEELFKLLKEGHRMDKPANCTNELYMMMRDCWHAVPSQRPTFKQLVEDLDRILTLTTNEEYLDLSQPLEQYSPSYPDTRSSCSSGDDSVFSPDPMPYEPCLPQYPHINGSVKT
*: point of attachment. Palmitoyl = CCCCCCCCCCCCCCCC(=O)*
value.type: FGFR2 Kinase % Inhibition
In your response, the unit should come after the numeric value.

Take a look at these entries with their results.
Given Palm-Lys-Phe-Asn-Leu-Pro-Leu-Gly-Asn-Tyr-Lys-Ala-Pro-NH2 (Palmitoyl-KFNLPLGNYKAP-NH2; SMILES CCCCCCCCCCCCCCCC(=O)N[C@@H](CCCCN)C(=O)N[C@@H](Cc1ccccc1)C(=O)N[C@@H](CC(N)=O)C(=O)N[C@@H](CC(C)C)C(=O)N1CCC[C@H]1C(=O)N[C@@H](CC(C)C)C(=O)NCC(=O)N[C@@H](CC(N)=O)C(=O)N[C@@H](Cc1ccc(O)cc1)C(=O)N[C@@H](CCCCN)C(=O)N[C@@H](C)C(=O)N1CCC[C@H]1C(N)=O) [Peptide 11] , state its recorded FGFR2 Kinase % Inhibition.
89.9%

Param item = Palm-Lys-Phe-Asn-Ala-Pro-Leu-Gly-Asn-Tyr-Lys-Lys-Pro-NH2 (Palmitoyl-KFNAPLGNYKKP-NH2; SMILES CCCCCCCCCCCCCCCC(=O)N[C@@H](CCCCN)C(=O)N[C@@H](Cc1ccccc1)C(=O)N[C@@H](CC(N)=O)C(=O)N[C@@H](C)C(=O)N1CCC[C@H]1C(=O)N[C@@H](CC(C)C)C(=O)NCC(=O)N[C@@H](CC(N)=O)C(=O)N[C@@H](Cc1ccc(O)cc1)C(=O)N[C@@H](CCCCN)C(=O)N[C@@H](CCCCN)C(=O)N1CCC[C@H]1C(N)=O) [Peptide 4] ; retrieve measured FGFR2 Kinase % Inhibition.
87.5%

Could you share which FGFR2 Kinase % Inhibition value was measured for Palm-Lys-Phe-Asn-Leu-Ala-Leu-Gly-Asn-Tyr-Lys-Lys-Pro-NH2 (Palmitoyl-KFNLALGNYKKP-NH2; SMILES CCCCCCCCCCCCCCCC(=O)N[C@@H](CCCCN)C(=O)N[C@@H](Cc1ccccc1)C(=O)N[C@@H](CC(N)=O)C(=O)N[C@@H](CC(C)C)C(=O)N[C@@H](C)C(=O)N[C@@H](CC(C)C)C(=O)NCC(=O)N[C@@H](CC(N)=O)C(=O)N[C@@H](Cc1ccc(O)cc1)C(=O)N[C@@H](CCCCN)C(=O)N[C@@H](CCCCN)C(=O)N1CCC[C@H]1C(N)=O) [Peptide 5] ?
91.1%

I'd like to know its FGFR2 Kinase % Inhibition. The substance in question is Palm-Lys-Phe-Asn-Leu-Pro-Leu-Gly-Asn-Tyr-Ala-Lys-Pro-NH2 (Palmitoyl-KFNLPLGNYAKP-NH2; SMILES CCCCCCCCCCCCCCCC(=O)N[C@@H](CCCCN)C(=O)N[C@@H](Cc1ccccc1)C(=O)N[C@@H](CC(N)=O)C(=O)N[C@@H](CC(C)C)C(=O)N1CCC[C@H]1C(=O)N[C@@H](CC(C)C)C(=O)NCC(=O)N[C@@H](CC(N)=O)C(=O)N[C@@H](Cc1ccc(O)cc1)C(=O)N[C@@H](C)C(=O)N[C@@H](CCCCN)C(=O)N1CCC[C@H]1C(N)=O) [Peptide 10]
93.4%

Now consider the entry below.
Requested read-out: FGFR2 Kinase % Inhibition. Entry: Palm-Lys-Phe-Asn-Leu-Pro-Leu-Gly-Asn-Ala-Lys-Lys-Pro-NH2 (Palmitoyl-KFNLPLGNAKKP-NH2; SMILES CCCCCCCCCCCCCCCC(=O)N[C@@H](CCCCN)C(=O)N[C@@H](Cc1ccccc1)C(=O)N[C@@H](CC(N)=O)C(=O)N[C@@H](CC(C)C)C(=O)N1CCC[C@H]1C(=O)N[C@@H](CC(C)C)C(=O)NCC(=O)N[C@@H](CC(N)=O)C(=O)N[C@@H](C)C(=O)N[C@@H](CCCCN)C(=O)N[C@@H](CCCCN)C(=O)N1CCC[C@H]1C(N)=O) [Peptide 9]
99.4%
